experiment: Tensile properties (GB/T 1040-2006): tensile modulus at 100%, elongation at break, elastic modulus; format: physicochemical; details: PVC plastic with 35 parts plasticizer; 50 mm/min, 25°C
Structures can show the parent of a compound that is named as a salt.
readout-name: Tensile modulus at 100% (MPa)
# unit: MPa | format: bare number

Qu. Which value of Tensile modulus at 100% has been reported for CCCCOC(=O)C=C(CC(=O)OCCCC)C(=O)OCCCC [Example 32, tributyl aconitate] in the records?
Ans. 15.6

Qu. Next record, please: CCCCOC(=O)C=C(CC(=O)OCCCC)C(=O)OCCCC [Example 19, tributyl aconitate]
Ans. 14.6

Qu. Next molecule up: CCCCOC(=O)CC(O)(CC(=O)OCCCC)C(=O)OCCCC [Comparative Example 5, tributyl citrate, reference compound]
Ans. 17.6

Qu. Note, next up: CCCCOC(=O)C=C(CC(=O)OCCCC)C(=O)OCCCC [Example 34, tributyl aconitate]
Ans. 14.7

Qu. Now this one: CCCCC(CC)COC(=O)C=C(CC(=O)OCC(CC)CCCC)C(=O)OCC(CC)CCCC (stereo not shown) [Example 20, tri(2-ethylhexyl) aconitate]
Ans. 19.7

Qu. Continue with CCCCOC(=O)C=C(CC(=O)OCCCC)C(=O)OCCCC [Example 24, tributyl aconitate]
Ans. 15.7

* * *

Quick list: Elastic modulus per entry.
assay: Tensile properties (GB/T 1040-2006): tensile modulus at 100%, elongation at break, elastic modulus; type: physicochemical; conditions: PVC composite with 30 parts plasticizer, Table 9
Where a name gives a salt, the structure may show the parent alone.
Give the value in MPa but do not write MPa after it.

- CC(C)CCCCCOC(=O)C=C(CC(=O)OCCCCCC(C)C)C(=O)OCCCCCC(C)C [Triisooctyl aconitate, triisooctyl aconitate]: 397.1
- CCCCCCCCOC(=O)c1ccccc1C(=O)OCCCCCCCC [Dioctyl Phthalate, dioctyl phthalate]: 487.3
- CCCCOC(=O)C=C(CC(=O)OCCCC)C(=O)OCCCC [Tributyl aconitate, tributyl aconitate]: 130.5

Qu. Please give the measured Elastic modulus for this compound: CCCCOC(=O)CC(O)(CC(=O)OCCCC)C(=O)OCCCC [Tributyl citrate, tributyl citrate]
Ans. 426.5

* * *

assay: Water content (Karl Fischer moisture meter); assay type: physicochemical; settings: aconitate/citrate products, Table 4
readout-name: Water content (%)
Use % as the unit, but write only the number.

Example entries and their recorded answers appear below.
- CCCCOC(=O)C=C(CC(=O)OCCCC)C(=O)OCCCC [Example 19, tributyl aconitate]: 0.03
- CCCCOC(=O)C=C(CC(=O)OCCCC)C(=O)OCCCC [Example 25, tributyl aconitate]: 0.03

Qu. // lookup Water content for CCOC(=O)C=C(CC(=O)OCC)C(=O)OCC [Example 21, triethyl aconitate]
Ans. 0.02

Qu. Same thing, different molecule: CCCCOC(=O)C=C(CC(=O)OCCCC)C(=O)OCCCC [Example 32, tributyl aconitate]
Ans. 0.02

Qu. Ok, now CCCCOC(=O)C=C(CC(=O)OCCCC)C(=O)OCCCC [Example 34, tributyl aconitate]
Ans. 0.03

Qu. Moving on to CCCCOC(=O)C=C(CC(=O)OCCCC)C(=O)OCCCC [Example 27, tributyl aconitate]
Ans. 0.05

Qu. What do you have for CCCCOC(=O)C=C(CC(=O)OCCCC)C(=O)OCCCC [Example 26, tributyl aconitate] ?
Ans. 0.04

Qu. Similarly, CCCCOC(=O)C=C(CC(=O)OCCCC)C(=O)OCCCC [Example 23, tributyl aconitate] ?
Ans. 0.03
